Test system: A549
Assay: NCI tumour cell line growth inhibition, 48 h
Active and inactive are the calls of the source. No stated cut-off is given here; in the data, active = GI50 up to about 1.1 µM and inactive = higher.
GI50 reference
PARAMETER_MEASURED: GI50

{"COMPOUND": "COC(=O)C(Cc1c(C2Nc3ccccc3C2CC(NC(=O)CNC(C)=O)C(=O)OC)[nH]c2ccccc12)NC(=O)CNC(C)=O (stereo unspecified)", "RESULT": "> 100 µM (inactive)"}
{"COMPOUND": "O=S(=O)(N1CCCCN(S(=O)(=O)C(F)(F)F)CCCN(S(=O)(=O)C(F)(F)F)CCCN(S(=O)(=O)C(F)(F)F)CCCCN(S(=O)(=O)C(F)(F)F)CCCN(S(=O)(=O)C(F)(F)F)CCC1)C(F)(F)F", "RESULT": "> 100 µM (inactive)"}
{"COMPOUND": "O=C(CCc1nnc2s/c(=C\\c3ccc(Cl)cc3Cl)c(=O)n12)Nc1cc(Cl)c(Cl)cc1Cl", "RESULT": "> 10 µM (inactive)"}
{"COMPOUND": "CC1=C(C(=O)NCCCN(CCO)CCO)CC(C(=O)NCCCN(CCO)CCO)=C(C)N1", "RESULT": "> 100 µM (inactive)"}
{"COMPOUND": "C=C[C@@H](C)[C@]1(C(=O)OC)CCCC12OCCO2", "RESULT": "> 100 µM (inactive)"}
{"COMPOUND": "[O-]c1c2cc(-[n+]3c(-c4ccccc4)cc(-c4ccccc4)cc3-c3ccccc3)cc1COCCOCCOCCOCCOC2", "RESULT": "60 µM (inactive)"}
